- experiment_summary: Antioxidant activity assessed as nitric oxide scavenging activity after 2.5 hrs by Griess assay
- Format: functional
property: IC50 (µg/mL)

molecule_smiles: COc1cc(OC)c(OC)cc1/C=C/C(=O)c1cccc([N+](=O)[O-])c1
IC50, µg/mL: 2.348
--
molecule_smiles: COc1cc(OC)c(OC)cc1/C=C/C(=O)c1cc(OCc2ccccc2)cc(OCc2ccccc2)c1
IC50, µg/mL: 2.092
--
molecule_smiles: COc1cc(OC)c(OC)cc1/C=C/C(=O)c1ccc(Br)cc1
IC50, µg/mL: 2.224
--
molecule_smiles: COc1cc(OC)c(-c2cc(=O)c3ccc(O)cc3o2)cc1OC
IC50, µg/mL: 2.273
--
molecule_smiles: COc1cc(OC)c(OC)cc1/C=C/C(=O)c1ccc(O)cc1
IC50, µg/mL: 2.502
--
molecule_smiles: COc1cc(OC)c(OC)cc1/C=C/C(=O)c1ccccc1
IC50, µg/mL: 2.012
--
molecule_smiles: COc1cc(OC)c(OC)cc1/C=C/C(=O)c1cc(Cl)ccc1O
IC50, µg/mL: 2.32
--
molecule_smiles: O=C1O[C@H]([C@@H](O)CO)C(O)=C1O
IC50, µg/mL: 2.632
--
molecule_smiles: COc1cc(OC)c(OC)cc1/C=C/C(=O)c1cc(O)ccc1O
IC50, µg/mL: 2.444
--
molecule_smiles: COc1cc(OC)c(-c2oc3ccc(O)cc3c(=O)c2O)cc1OC
IC50, µg/mL: 2.33
--
molecule_smiles: COc1cc(OC)c(OC)cc1/C=C/C(=O)c1ccc(C)cc1
IC50, µg/mL: 2.181
